This collection of values is drawn from patent US6949574B2.

target_under_test: human FAAH (Homo sapiens, UniProt O00519)
Construct: expressed in transfected cells; host or cells: H4 cells (H4-FAAH, Geneticin-selected); crude membrane homogenates
Sequence (O00519 whole entry): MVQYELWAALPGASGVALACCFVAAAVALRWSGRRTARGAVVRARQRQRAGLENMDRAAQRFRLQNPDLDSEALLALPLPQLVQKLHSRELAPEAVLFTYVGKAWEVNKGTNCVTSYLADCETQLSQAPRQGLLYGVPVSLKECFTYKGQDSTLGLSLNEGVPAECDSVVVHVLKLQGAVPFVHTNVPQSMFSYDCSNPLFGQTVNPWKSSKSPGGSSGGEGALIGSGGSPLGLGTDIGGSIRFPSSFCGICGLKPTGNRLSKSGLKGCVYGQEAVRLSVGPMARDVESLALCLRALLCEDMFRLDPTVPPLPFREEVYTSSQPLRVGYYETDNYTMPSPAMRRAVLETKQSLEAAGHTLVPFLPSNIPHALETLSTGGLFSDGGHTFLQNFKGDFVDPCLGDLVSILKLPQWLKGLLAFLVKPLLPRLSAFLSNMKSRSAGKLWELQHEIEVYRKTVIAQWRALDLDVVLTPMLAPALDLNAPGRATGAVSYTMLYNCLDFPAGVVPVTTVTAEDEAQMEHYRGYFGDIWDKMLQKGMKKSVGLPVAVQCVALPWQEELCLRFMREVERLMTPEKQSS
test_method_notes: FAAH activity in membrane homogenates of H4-FAAH cells, [3H]-anandamide hydrolysis
Format: biochemical
reported_conditions: H4-FAAH cell membranes, 10 μM anandamide, room temperature, one hour; read-out: IC50
measured_attribute: IC50

Please report IC50 for every entry that follows.
1. CCCCCCCCCCOc1ccc(NC(=O)O/N=C/c2ccc(F)cc2)cc1
2. CCCCCCCCCOc1ccc(NC(=O)O/N=C/c2cc(C(F)(F)F)ccc2F)cc1
3. O=C(Nc1ccc(OCCCc2ccccc2)cc1)O/N=C/c1ccc(F)cc1
4. CCCCOc1ccc(CNC(=O)Oc2ccccc2)cc1
5. O=C(Nc1ccc2[nH]ccc2c1)O/N=C/c1ccc(F)cc1
6. CCCCOc1ccc(NC(=O)O/N=C/c2ccccc2)cc1

< 10 nM
< 10 nM
< 10 nM
< 10 nM
> 500 nM
< 10 nM

----------
target_under_test: human FAAH (Homo sapiens)
Construct: expressed in transfected cells; host or cells: H4 cells (H4-FAAH, Geneticin-selected); crude membrane homogenates
test_method_notes: FAAH activity in membrane homogenates of H4-FAAH cells, [3H]-anandamide hydrolysis
Format: biochemical
reported_conditions: H4-FAAH cell membranes, 10 μM anandamide, room temperature, one hour; read-out: IC50
Method: Homogenates of crude membranes were prepared from H4 cells that express transfected human FAAH (H4-FAAH cells). […] Activity of FAAH was measured using a modification of the method described by Omeir et al., 1995 (Life Sci 56:1999, 1995). […] An aliquot of the aqueous phase, containing [^3H]-ethanolamine was withdrawn and counted by scintillation spectroscopy. […] IC50 values were determined using a four-parameter logistic equation for dose-response curves.
measured_attribute: IC50

[[record]]
test_smiles = "CCCCCCCOc1ccc(NC(=O)O/N=C/c2ccc(F)cc2)cc1"
measured_attribute = "IC50"
result_value = "< 10 nM"

[[record]]
test_smiles = "CCCCCCCCCOc1ccc(NC(=O)O/N=C/c2c(F)cccc2F)cc1"
measured_attribute = "IC50"
result_value = "< 10 nM"


Respectfully, I request IC50 for each entry included below.
1. O=C(Nc1ccc(-c2ccccc2)cc1)O/N=C/c1ccccc1
2. CCCCCCCCOc1ccc(NC(=O)Oc2ccccc2)cc1
3. O=C(Nc1c[nH]c2ccccc12)O/N=C/c1ccccc1
4. CCCCCCCCCOc1ccc(NC(=O)O/N=C/c2cccc(F)c2F)cc1

10 to 100 nM
< 10 nM
> 500 nM
< 10 nM
